# protocol: C0 in Sprague-Dawley rat at 1 mg/kg, iv by LC-MS/MS analysis
# Assay type: ADME, organism-based
# condition label: in vivo
measurement name: C0 (ng/mL)
Express your answer in ng/mL, writing the number without its unit.

// query Supply measured C0 of `CC(=O)c1c(C)[nH]c(-c2nc3cc(N4CCN(C)CC4)ccc3[nH]2)c1-c1ccccc1` in your reply.
// result 548

====

# tgt: Bromodomain-containing protein 4 (Homo sapiens, UniProt O60885)
# protocol: Inhibition of Alexa647 labelled MS417 binding to his tagged BRD4 BD1 (unknown origin) by TR-FRET assay
measurement name: IC50 (nM)
Express your answer in nM, writing the number without its unit.

// query Supply measured IC50 of `CCS(=O)(=O)Nc1ccc(Oc2ccc(F)cc2F)c(-c2cn(C)c(=O)c3[nH]ccc23)c1` in your reply.
// result 11

====

# protocol: AUC (0 to infinity) in Sprague-Dawley rat at 1 mg/kg, iv by LC-MS/MS analysis
# Assay type: ADME, organism-based
# Set-up: time infinity, dose 1 mg/kg, route iv
# condition label: in vivo
measurement name: AUC(0-inf) (ng·h/mL)
Express your answer in ng·h/mL, writing the number without its unit.

// query Supply measured AUC(0-inf) of `CC(=O)c1c(C)[nH]c(-c2nc3cc(N4CCN(C)CC4)ccc3[nH]2)c1-c1ccccc1` in your reply.
// result 725

====

# protocol: Metabolic stability in monkey liver microsomes assessed as elimination half life incubated for 1 hr by LC-MS/MS analysis
# Assay type: ADME, Macaca mulatta, Microsome
# condition label: rhesus monkey, read-out: beta t1/2
Would you mind telling me the reported half-life of each entry?

// query Supply measured half-life of `CC(=O)c1c(C)[nH]c(-c2nc3cc(N4CCOCC4)ccc3[nH]2)c1-c1ccccc1` in your reply.
// result 31.6 min

// query Supply measured half-life of `CC(=O)c1c(C)[nH]c(-c2nc3cc(N4CCN(C)CC4)ccc3[nH]2)c1-c1ccccc1` in your reply.
// result 85.4 min

====

# tgt: Bromodomain-containing protein 4 (Homo sapiens, UniProt O60885)
# protocol: Inhibition of recombinant his tagged BRD4 BD1 (unknown origin) at 2 uM by Alpha screen assay relative to control
measurement name: inhibition (%)
Express your answer in %, writing the number without its unit.

// query Supply measured inhibition of `CC(=O)c1c(C)[nH]c(-c2cnc3ccccc3c2)c1C` in your reply.
// result 85.5

// query Supply measured inhibition of `CC(=O)c1c(C)[nH]c(-c2ccc3cc[nH]c3c2)c1C` in your reply.
// result 79.5

// query Supply measured inhibition of `CC(=O)c1c(C)[nH]c(-c2nc3ccccc3s2)c1C` in your reply.
// result 73.6

// query Supply measured inhibition of `CC(=O)c1c(C)[nH]c(-c2nc3cc(N4CCN(C)CC4)ccc3[nH]2)c1C(C)C` in your reply.
// result 98.9

// query Supply measured inhibition of `CC(=O)c1c(C)[nH]c(-c2ccc3c4ccccc4n(C)c3c2)c1C` in your reply.
// result 84

// query Supply measured inhibition of `CC(=O)c1c(C)[nH]c(-c2nc3cc(N4CCN(C)CC4)ccc3[nH]2)c1C1CCCCC1` in your reply.
// result 79

// query Supply measured inhibition of CC(=O)c1c(C)[nH]c(-c2nc3c([nH]2)=CCC(Nc2ccnc(Cl)n2)C=3)c1C (configuration not stated) in your reply.
// result 91.1

====

# protocol: Oral bioavailability in Sprague-Dawley rat at 10 mg/kg by LC-MS/MS analysis
# Assay type: ADME, organism-based
# condition label: in vivo
measurement name: bioavailability (%)
Express your answer in %, writing the number without its unit.

// query Supply measured bioavailability of `CC(=O)c1c(C)[nH]c(-c2nc3cc(N4CCN(C)CC4)ccc3[nH]2)c1-c1ccccc1` in your reply.
// result 111

====

# protocol: Tmax in Sprague-Dawley rat at 10 mg/kg, po by LC-MS/MS analysis
# Format: ADME, organism-based
# condition label: in vivo
measurement name: Tmax (h)
Express your answer in h, writing the number without its unit.

// query Supply measured Tmax of `CC(=O)c1c(C)[nH]c(-c2nc3cc(N4CCN(C)CC4)ccc3[nH]2)c1-c1ccccc1` in your reply.
// result 3.33

====

# protocol: Half life in Sprague-Dawley rat at 10 mg/kg, po by LC-MS/MS analysis
# Format: ADME, organism-based
# condition label: in vivo
measurement name: half-life

// query Supply measured half-life of `CC(=O)c1c(C)[nH]c(-c2nc3cc(N4CCN(C)CC4)ccc3[nH]2)c1-c1ccccc1` in your reply.
// result 242 min

====

# protocol: Metabolic stability in dog liver assessed as intrinsic clearance incubated for 1 hr by LC-MS/MS analysis
# Format: ADME, tissue-based, Canis lupus familiaris
# condition label: read-out: CLH
measurement name: CLint scaled (L/h/kg)
Express your answer in L/h/kg, writing the number without its unit.

// query Supply measured CLint scaled of `CC(=O)c1c(C)[nH]c(-c2nc3cc(N4CCOCC4)ccc3[nH]2)c1-c1ccccc1` in your reply.
// result 2.69

// query Supply measured CLint scaled of `CC(=O)c1c(C)[nH]c(-c2nc3cc(N4CCN(C)CC4)ccc3[nH]2)c1-c1ccccc1` in your reply.
// result 7.98

====

# protocol: Clearance in Sprague-Dawley rat at 1 mg/kg, iv by LC-MS/MS analysis
# Assay type: ADME, organism-based
# condition label: in vivo
measurement name: clearance (mL/min/kg)
Express your answer in mL/min/kg, writing the number without its unit.

// query Supply measured clearance of `CC(=O)c1c(C)[nH]c(-c2nc3cc(N4CCN(C)CC4)ccc3[nH]2)c1-c1ccccc1` in your reply.
// result 24.3

====

# protocol: Volume of distribution in Sprague-Dawley rat at 1 mg/kg, iv by LC-MS/MS analysis
# Assay type: ADME, organism-based
# condition label: in vivo
measurement name: Vd (L/kg)
Express your answer in L/kg, writing the number without its unit.

// query Supply measured Vd of `CC(=O)c1c(C)[nH]c(-c2nc3cc(N4CCN(C)CC4)ccc3[nH]2)c1-c1ccccc1` in your reply.
// result 3.3

====

# protocol: Metabolic stability in human liver microsomes assessed as intrinsic clearance incubated for 1 hr by LC-MS/MS analysis
# Type: ADME, Microsome
# condition label: read-out: CLH
Would you mind telling me the reported microsomal CLint of each entry?
Express your answer in µL/min/mg, writing the number without its unit.

// query Supply measured microsomal CLint of `CC(=O)c1c(C)[nH]c(-c2nc3cc(N4CCOCC4)ccc3[nH]2)c1-c1ccccc1` in your reply.
// result 22.6

// query Supply measured microsomal CLint of `CC(=O)c1c(C)[nH]c(-c2nc3cc(N4CCN(C)CC4)ccc3[nH]2)c1-c1ccccc1` in your reply.
// result 7.03

====

Would you mind telling me the reported half-life of each entry?
# protocol: Metabolic stability in rat liver microsomes assessed as elimination half life incubated for 1 hr by LC-MS/MS analysis
# Assay type: ADME, Microsome
# condition label: read-out: beta t1/2
Express your answer in min, writing the number without its unit.

// query Supply measured half-life of `CC(=O)c1c(C)[nH]c(-c2nc3cc(N4CCN(C)CC4)ccc3[nH]2)c1-c1ccccc1` in your reply.
// result 66.4

// query Supply measured half-life of `CC(=O)c1c(C)[nH]c(-c2nc3cc(N4CCOCC4)ccc3[nH]2)c1-c1ccccc1` in your reply.
// result 20.4

====

# protocol: Metabolic stability in dog liver microsomes assessed as intrinsic clearance incubated for 1 hr by LC-MS/MS analysis
# Format: ADME, Canis lupus familiaris, Microsome
# condition label: read-out: CLH
measurement name: microsomal CLint
Quick note: unit goes after the number.

// query Supply measured microsomal CLint of `CC(=O)c1c(C)[nH]c(-c2nc3cc(N4CCN(C)CC4)ccc3[nH]2)c1-c1ccccc1` in your reply.
// result 92.2 µL/min/mg

// query Supply measured microsomal CLint of `CC(=O)c1c(C)[nH]c(-c2nc3cc(N4CCOCC4)ccc3[nH]2)c1-c1ccccc1` in your reply.
// result 31.1 µL/min/mg

====

# protocol: AUC (0 to infinity) in Sprague-Dawley rat at 10 mg/kg, po by LC-MS/MS analysis
# Type: ADME, organism-based
# Parameters: time infinity, dose 10 mg/kg, route po
# condition label: in vivo
measurement name: AUC(0-inf) (ng·h/mL)
Express your answer in ng·h/mL, writing the number without its unit.

// query Supply measured AUC(0-inf) of `CC(=O)c1c(C)[nH]c(-c2nc3cc(N4CCN(C)CC4)ccc3[nH]2)c1-c1ccccc1` in your reply.
// result 8050
